- Tested on: COLO 205 colon
- protocol.summary: NCI tumour cell line growth inhibition, 48 h
measured.parameter: TGI

# query: TGI | item `COc1ccc(-c2cn(-c3ccc(Cl)cc3)c(=S)[nH]2)cc1OC` | system: COLO 205 colon
> 100 µM

Same read-out for `CCOC(=O)C1=C(OS(=O)(=O)C(F)(F)F)CCCC1` ?
> 100 µM

Same read-out for `CC(=O)c1ccc(N2CCN(c3c(O)c4c(c(O)c3Cl)C(=O)C=CC4=O)CC2)cc1` ?
8.91 µM

Same read-out for `Cn1c(=O)oc2cc(C(=S)N3CCC(Cc4ccccc4)CC3)ccc21` ?
> 100 µM

Same read-out for COc1ccc(N2C(=O)C3c4[nH]c5ccccc5c4C4CCCCCCCC4C3C2=O)cc1 (stereo not drawn) ?
> 10 µM

Same read-out for O=C1NC2OCC(O)C(O1)C2O (stereo not drawn) ?
> 100 µM

Same read-out for Cc1cc(=O)oc2c(CNC(C)C(=O)O)c(O)ccc12 (stereo not drawn) ?
> 100 µM

Same read-out for CC1(C)CC(=O)C(CC(C(=O)C(=O)Nc2cc(C(F)(F)F)ccc2Cl)C(=O)c2ccco2)C(=O)C1 (stereo not drawn) ?
> 100 µM

Same read-out for `CCCCCCNC(=O)c1cc(C#Cc2cc(OC)ccc2OC)ccc1OC` ?
> 100 µM

Same read-out for CCN(CC)CCCC(C)NC(=O)c1cc(-c2nccn2C)nc2ccc(C)cc12 (stereo not drawn) ?
> 100 µM

Same read-out for Nc1nc(=O)n(C2CC(O)C(O)C(CO)O2)cc1F (stereo not drawn) ?
> 100 µM

Same read-out for CC(C)(C)[Si](C)(C)OCC1OC(n2cc(F)c(=O)[nH]c2=O)CC1O[Si](C)(C)C(C)(C)C (stereo not drawn) ?
19.5 µM

Same read-out for `C[N+](C)(C)CCC(=O)N1C/C(=C\c2ccccc2)C(=O)/C(=C/c2ccccc2)C1` ?
13.4 µM

Same read-out for `C/C(=N\Nc1nc2ccccc2[nH]1)c1ccncn1` ?
> 47.4 µM

Same read-out for COCC1C(=O)c2cc3c(cc2C12C=CC1(C=C2)OCCO1)OCO3 (stereo not drawn) ?
38 µM

Same read-out for `NC(=O)Cc1ncn(-c2ccccc2)n1` ?
> 100 µM

Same read-out for `O=S(=O)(O)c1ccc(Cl)cc1.[Cd]` ?
> 100 µM

Same read-out for `Oc1ccc(-c2c3ccccc3c(-c3ccc(OCCBr)cc3)c3ccccc23)cc1` ?
96.9 µM

Same read-out for `Cc1c2ccccc2c(CO)c2cc(F)c3ccccc3c12` ?
32.2 µM

Same read-out for C=CCCC(O)c1ccc(C(O)CCCCCCCCCCCC)o1 (stereo not drawn) ?
> 100 µM

Same read-out for `O=C1NCC2(CCN(Cc3ccccc3)CC2)N1` ?
> 100 µM

Same read-out for Nc1ncnc2c1c(-c1cccc(OCc3ccccc3)c1)cn2C1CC(CN2CCCC2)C1 (stereo not drawn) ?
1.47 µM

Same read-out for `O=C(N1CCOCC1)C1(c2ccccc2)CCNCC1` ?
> 100 µM

* * *

- Test system: SK-OV-3 ovarian
- protocol.summary: NCI tumour cell line growth inhibition, 48 h
measured.parameter: TGI

Request the reported TGI associated with `COc1cc(-c2cc(/C=C/C(=O)c3ccc4c(c3)OCO4)[nH]n2)cc(OC)c1OC`
26.1 µM

Same read-out for Cc1cc2c(cc1C)N1Cc3c(ccc(C)c3C)N(C2)C1 (tested in a mixture with another compound) ?
> 100 µM

Same read-out for `CCCCCCNC(=O)c1cc(C#Cc2cc(OC)ccc2OC)ccc1OC` ?
> 100 µM

Same read-out for `O=C(O)CNC(=O)c1ccccc1O` ?
> 100 µM

Same read-out for `O=C(CC(=O)N(C(=O)c1ccccc1)c1ccc(Cl)cc1)N/N=C\c1ccccc1O` ?
54.3 µM

Same read-out for `SC[C@@H]1COC[C@H](CS)S1` ?
> 100 µM

Same read-out for `COC(=O)CSc1ccccc1` ?
> 100 µM

Same read-out for `C/C(O)=C(/C=N\C(=S)Nc1ccc(Cl)c(Cl)c1)C(=O)Nc1ccccc1C` ?
> 100 µM

Same read-out for Nc1ncnc2c1c(-c1cccc(OCc3ccccc3)c1)cn2C1CC(CN2CCCC2)C1 (stereo unspecified) ?
5.85 µM

Same read-out for COC(=O)C(/C(=N/N)C(=O)Nc1ccc(C)c(C)c1)c1nc2ccc(Cl)cc2[nH]c1=O (stereo unspecified) ?
> 100 µM

Same read-out for COC(=O)[C@@]12CC[C@]1(C(=O)OC)C1C(C)=CC(=O)O[C@@]12C (stereo partly specified) ?
> 100 µM

Numbers sourced from PubChem BioAssay (NCI).
